- System Name: T1, Recombinant microbial transglutaminase (mTG) (Streptoverticillium mobaraense, UniProt P81453 77-407)
- T1 sequence (looked up): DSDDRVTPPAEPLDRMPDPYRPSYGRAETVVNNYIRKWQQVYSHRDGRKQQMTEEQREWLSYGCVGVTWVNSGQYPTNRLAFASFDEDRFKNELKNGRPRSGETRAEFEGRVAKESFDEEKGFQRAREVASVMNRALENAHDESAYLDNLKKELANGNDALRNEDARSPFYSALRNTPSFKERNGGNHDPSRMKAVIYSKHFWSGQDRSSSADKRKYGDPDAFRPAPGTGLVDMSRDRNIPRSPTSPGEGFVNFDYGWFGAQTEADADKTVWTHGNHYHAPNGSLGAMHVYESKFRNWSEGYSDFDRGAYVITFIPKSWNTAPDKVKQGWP
- Assay Remarks: cell-based or functional assay
Where no end group is shown, it is not given here.
I'd appreciate it if you could supply Kmapp values for the items below.
State just the number; it will be interpreted in µM.

Prompt: Report Kmapp for FWIQE (also: biotin tag, position not given here) [bFE5Q4] please.
Completion: 5

Prompt: Report Kmapp for YEIQR (also: biotinylated, position not given here) [BEST1] please.
Completion: 0.086

Prompt: Report Kmapp for WPAQR (also: biotinylated, position not given here) [BEST4] please.
Completion: 0.225

Where do these numbers come from? They come from patent US20160361434A1.
